System: NCI/ADR-RES
assay_comment: NCI tumour cell line growth inhibition, 48 h
Active and inactive are the calls of the source. Cut-off read from the data, not from the text of the source: active = GI50 up to about 1.1 µM and inactive = higher.
recorded_endpoint: GI50

Sample answers from the record:
INSERT INTO results (compound, test_target, measurement) VALUES
  ('COc1c(O)c(O)c2c(c1O)C(=O)c1cc(C)cc(O)c1C2=O', 'NCI/ADR-RES', '16.7 µM (inactive)'),
  ('CCOC(=O)C(SCCO)C(C(=O)OCC)n1cnc2c(=O)[nH]c(NC(C)=O)nc21 (stereo unspecified)', 'NCI/ADR-RES', '> 100 µM (inactive)'),
  ('CCc1n[nH]c(=O)n1/N=C(\C)c1ccccc1', 'NCI/ADR-RES', '> 100 µM (inactive)'),
  ('COc1ccc2[nH]c3c(c2c1)CCn1c-3nc2ccccc2c1=O', 'NCI/ADR-RES', '> 25 µM (inactive)'),
  ('COC(=O)CCN(CCC(=O)OC)C1CC1', 'NCI/ADR-RES', '> 100 µM (inactive)'),
  ('CN(CCC(=O)O)C1=Nc2ccc(Cl)cc2C(c2ccccc2)=[N+]([O-])C1', 'NCI/ADR-RES', '> 100 µM (inactive)'),
  ('COc1cc(-c2cc(=O)c3c(OC)c(OC)c(OC)cc3o2)c(OC)c(OC)c1OC', 'NCI/ADR-RES', '36.9 µM (inactive)'),
  ('CC1(C)C2CC(c3ccncc3)ON2C(C)(C)N1O (stereo unspecified)', 'NCI/ADR-RES', '> 100 µM (inactive)');

Given the compound CCc1nc(N)nc(N)c1-c1ccc(Cl)c(/N=C/N(C)C)c1 , what is its reported GI50?
> 93.1 µM (inactive)

Item under review: CC(CO)CCC(O)C(C)(O)C1CCC2(O)C3=CC(=O)C4CC(O)C(O)CC4(C)C3CCC12C (stereo unspecified) . Reported GI50?
> 100 µM (inactive)

Item CCOC(=O)C1=C(C)N(c2ccc(C)cc2)C2(O)C=CC(O)=C3C(=O)c4ccccc4C(=O)C312 (stereo unspecified) has what recorded GI50?
8.24 µM (inactive)

Bench note: what GI50 did Nc1c(Cl)ncnc1NCC1(CO)CCC1 show?
> 100 µM (inactive)

Item under review: CN(/N=C\c1ccc2ccccc2c1)C1=NCCN1 . Reported GI50?
20.6 µM (inactive)

* * *

Tested on: SK-OV-3
assay_comment: NCI tumour cell line growth inhibition, 48 h
Calls of active or inactive are those of the source. No stated cut-off is given here; in the data, active = GI50 up to about 1.1 µM and inactive = higher.
Respond using exactly one of the listed classes: active, inactive

Answer briefly: the call reported for Cc1nc2ccccc2c(=O)n1/N=C(\N=N\c1cc(Cl)ccc1Cl)c1ccc(N(C)C)cc1 in this assay.
inactive

Which result was noted for this molecule in the test: N=C(N)NCCCS(=O)(=O)Nc1ccc(Nc2c3ccccc3nc3cc([N+](=O)[O-])ccc23)cc1
inactive

Could you please tell me the result logged for CCCCCCCCCC(=O)N[C@@H](c1ccco1)[C@@H](O)C(=O)O[C@H]1C[C@@]2(O)[C@@H](OC(=O)c3ccccc3)[C@@H]3[C@]4(OC(C)=O)CO[C@@H]4C[C@H](O)[C@@]3(C)C(=O)[C@H](OC(C)=O)C(=C1C)C2(C)C in this assay?
active

Each molecule tested received a call. Report the one for CNC(=O)N(CCC#N)CCCN(C(=O)N(C)C)c1ccccc1 .
inactive

Outcome logged for CCC(C)c1c(Cl)nc(Cl)nc1Cl (centres undefined) in this assay:
inactive

Entry CCCN(CCC)c1c([N+](=O)[O-])cc(C(=O)N(C)C)cc1[N+](=O)[O-] : call = ?
inactive

Outcome? Oc1nc(-c2ccccc2)cc(-c2ccccc2O)n1
inactive

State the result this test recorded for O=C(O)CCC1NC(/C(=C/c2ccccc2O)NC(=O)c2ccccc2)OC1=O (centres undefined) .
inactive

Called result for NC(=O)C1CCN(Cc2c(Cl)c(Cl)c(CN3CCC(C(N)=O)CC3)c(Cl)c2Cl)CC1
inactive

* * *

Measured GI50 accompanies every entry in the list below.
Test system: EKVX
assay_comment: NCI tumour cell line growth inhibition, 48 h
Calls of active or inactive are those of the source. No stated cut-off is given here; in the data, active = GI50 up to about 1.1 µM and inactive = higher.

The cases that follow already have their GI50 on record.
INSERT INTO results (compound, recorded_endpoint, measurement) VALUES
  ('Oc1cc2c(cc1O)-c1[nH]ncc1CC2', 'GI50', '10.2 µM (inactive)'),
  ('CC[N+]1(C)CCC(O)(c2ccc(Cl)c(Cl)c2)C(C(=O)c2ccc(Cl)c(Cl)c2)C1 (stereo unspecified)', 'GI50', '> 10 µM (inactive)'),
  ('c1ccc2c(c1)CCN(C1=NCCO1)C2', 'GI50', '> 10 µM (inactive)'),
  ('OC1(C(Sc2ccccc2)Sc2ccccc2)CCCCCC1', 'GI50', '21.2 µM (inactive)'),
  ('COc1c2c(cc3occ(-c4ccc(CC=C(C)C)cc4)c(=O)c13)OC(C)(C)C=C2', 'GI50', '28.4 µM (inactive)');

Param item = COc1ccc(NC(=O)CC(=O)NN)cc1 ; retrieve measured GI50.
> 100 µM (inactive)

Quick check: GI50 of CCN(CCCl)CCCNc1c2ccccc2nc2ccc(OC)cc12 ?
1.02 µM (active)

Value lookup for GI50; key = Cc1ccc2c(/C=C/c3ccc(N(C)C)cc3)ccnc2c1C
40.4 µM (inactive)

Query (compound): O/N=N/c1ccc(Sc2ccc(/N=N/O)cn2)nc1 ; field requested: GI50
> 100 µM (inactive)

Can you look up the measured GI50 of CCOC(=O)C1=C(Nc2ccc(Cl)c(Cl)c2)OC/C1=N\NS(=O)(=O)c1ccc(C)cc1 for me?
58.1 µM (inactive)

Quick one: GI50 for C=CCN1/C(=C2\SC(=S)N(c3ccc(C)cc3)C2=O)Sc2c1ncn(C)c2=O ?
69 µM (inactive)

* * *

# GI50 listing for each entry below
Tested on: SR
assay_comment: NCI tumour cell line growth inhibition, 48 h
Calls of active or inactive are those of the source. Cut-off read from the data, not from the text of the source: active = GI50 up to about 1.1 µM and inactive = higher.

Worked examples, 4 molecules total:
INSERT INTO results (molecule, measurement) VALUES
  ('c1ccc(-c2nc(-c3ccccc3SSc3ccccc3-c3nc(-c4ccccc4)nn3-c3ccccc3)n(-c3ccccc3)n2)cc1', '> 100 µM (inactive)'),
  ('CC1(C)CC2=NOS3=C2C(=NO3)C1c1ccccn1 (stereo not given)', '39.3 µM (inactive)'),
  ('C=C(C)c1nc(C#N)c(N)o1', '> 100 µM (inactive)'),
  ('COc1cc(-c2cc(=O)c3c(OC)c(OC)c(OC)cc3o2)c(OC)c(OC)c1OC', '63.1 µM (inactive)');

Dear colleague, I am looking for the recorded GI50 of the following molecule: COC1=CC(=O)c2c(cc(COP(=O)(OCC3OC(n4cc(F)c(=O)[nH]c4=O)CC3O)N(C)CCCCCl)n2C)C1=O (stereo not given)
< 0.01 µM (active)

* * *

Tested on: HCT-15
# log10 GI50 values compiled below
log10 GI50, µM

In the examples that follow, each entry is paired with its recorded log10 GI50.
INSERT INTO results (compound, measurement) VALUES
  ('COc1c(Cl)ccc(Cl)c1C(=O)NNC(=O)c1c(Cl)c(Cl)c(Cl)c(Cl)c1-c1nc2cc(C(=O)c3ccccc3)ccc2[nH]1', 1.54),
  ('O=C(c1ccccc1)c1ccc(-n2c3ccccc3c3ccc4c(c32)C(=O)C=CC4=O)cc1', 1.05),
  ('CC1=[N+]([O-])c2ccccc2C(=O)C1=O', 1.75);

Item under review: CN(C)C(=S)/N=c1\ssc(=S)n1Cc1ccccn1 . Reported log10 GI50?
0.30

What value of log10 GI50 has been reported for the following compound? COc1ccc([C@H]2C=C(c3cc(F)c(Cl)cc3Cl)N=c3s/c(=C\c4ccc(-c5ccc(Cl)cc5Cl)o4)c(=O)n32)cc1
1.53

* * *

Tested on: NCI/ADR-RES
assay_comment: NCI tumour cell line growth inhibition, 48 h
Active and inactive are the calls of the source. No stated cut-off is given here; in the data, active = GI50 up to about 1.1 µM and inactive = higher.
Your answer must be one of the following: active, inactive

INSERT INTO assay_data (compound, class_name) VALUES
  ('c1ccc2c(c1)[n-]n1c3ccc4nonc4c3n[n+]21', 'inactive'),
  ('O=C(CC(C(=O)c1cccs1)c1ccsc1)c1ccco1 (stereo unspecified)', 'inactive');

Per the assay record, what outcome was assigned to CCOC(=O)C1=C(C)NC(C)=C(C(=O)OCC)C1c1ccc(Cl)cc1 ?
inactive

Hi, do you know how CC(=O)Oc1c2ccsc2c(OC(C)=O)c2ccsc12 came out in this test?
active

Test call for this compound, please: CCCCC/C=C1\CCC(CN2CCOCC2)C1=O (stereo unspecified)
inactive

Hi, sorry to bother you, what did the test record for O=C(O)CCC1NC(/C(=C/c2ccccc2O)NC(=O)c2ccccc2)OC1=O (stereo unspecified) ?
inactive

* * *

Recorded GI50 by entry
Test system: SK-MEL-28
assay_comment: NCI tumour cell line growth inhibition, 48 h
Calls of active or inactive are those of the source. No stated cut-off is given here; in the data, active = GI50 up to about 1.1 µM and inactive = higher.

Example results:
INSERT INTO measurements (molecule, measurement) VALUES
  ('CN1C(C(=O)Nc2ccccn2)=C(O)c2ccccc2S1(=O)=O', '> 100 µM (inactive)'),
  ('CS(=O)(=O)OC1CCN(C2(c3cccc(O)c3)CCCCC2)CC1', '60.4 µM (inactive)'),
  ('O=C(CC1(O)C(=O)Nc2ccccc21)c1cccc(O)c1 (stereo not given)', '> 100 µM (inactive)');

Using the record for CCC12C=CCN3CCC4(C(=C(C(=O)OC)[C@@H]1O)Nc1ccccc14)C32 (stereo not given in full) , report its GI50.
1.95 µM (inactive)

Would you mind telling me what GI50 value was observed for O=c1onc2n1-c1cc(Cl)ccc1C(=S)N1CSCC21 (stereo not given) ?
> 100 µM (inactive)

Bench note: what GI50 did O=C(CCCNC(=O)OCc1ccccc1)OCc1ccc2c(c1)C(=O)c1ccccc1C2=O show?
> 100 µM (inactive)

For CCC1(O)C(=O)OCc2c1cc1n(c2=O)Cc2cc3ccccc3nc2-1 (stereo not given) , what is its reported GI50?
0.334 µM (active)

# query: GI50 of entry OCc1ccn2c1[C@@H](O)CC2
> 100 µM (inactive)

Give its GI50 value. Item: Cc1cc(C)nc(NS(=O)(=O)c2ccc(Nc3c4ccccc4nc4c(C(=O)Nc5ccc(S(N)(=O)=O)cc5)cccc34)cc2)n1
83.9 µM (inactive)

Param item = NC(=O)COc1c(Br)cc(Br)cc1Br ; retrieve measured GI50.
> 100 µM (inactive)
